QPCTL (Homo sapiens (Human)) measurements of pIC50, listed per entry.
pIC50: −log10 of the molar value.

O=C1[C@H](C2CC2)[C@H](c2c(F)cc(-c3ccn(C(F)(F)F)n3)cc2F)N1c1ccc2[nH]cnc2c1 (single isomer, unassigned) [Compound 47B]: > 8.70

The record that follows has no pIC50 shown yet.
Reported pIC50, compound C[C@H]1C(=O)N(c2ccc3[nH]cnc3c2)[C@H]1c1c(F)cc(-c2cnn(C)c2)cc1F (single isomer, unassigned) [Compound 13B] : ____
7.60 to 8.70

----------
QPCTL (Homo sapiens (Human), UniProt Q9NXS2) measurements of pIC50, listed per entry.
Sequence (Q9NXS2 whole entry, species assumed): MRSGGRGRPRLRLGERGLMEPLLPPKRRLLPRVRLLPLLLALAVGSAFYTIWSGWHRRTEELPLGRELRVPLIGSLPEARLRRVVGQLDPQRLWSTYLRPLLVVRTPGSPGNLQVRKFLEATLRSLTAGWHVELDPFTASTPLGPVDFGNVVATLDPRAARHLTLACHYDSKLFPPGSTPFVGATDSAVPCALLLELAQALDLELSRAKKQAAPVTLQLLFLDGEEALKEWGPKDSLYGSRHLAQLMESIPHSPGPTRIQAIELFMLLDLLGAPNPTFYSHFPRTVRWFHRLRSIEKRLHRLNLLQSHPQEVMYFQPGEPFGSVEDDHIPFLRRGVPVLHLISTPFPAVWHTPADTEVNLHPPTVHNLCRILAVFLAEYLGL
pIC50: −log10 of the molar value.

Previously resolved entries follow.
CC[C@@H]1C(=O)N(c2ccc3[nH]cnc3c2)[C@@H]1c1c(F)cc(-c2cnn(C(F)(F)F)c2)cc1F (single isomer, unassigned) [Compound 51A]: 6.00 to 7.60
O=C1[C@@H](C2CC2)[C@@H](c2ccc(-c3cnn(C(F)(F)F)c3)cc2C(F)(F)F)N1c1ccc2[nH]cnc2c1 (single isomer, unassigned) [Compound 76A]: > 8.70

Reported pIC50, molecule O=C1[C@H](O)[C@H](c2c(F)cc(-c3cnn(C(F)(F)F)c3)cc2F)N1c1ccc2[nH]cnc2c1 (racemic) [Compound 16CR] : ____
> 8.70

What about O=C1[C@H](C2CC2)[C@H](c2c(F)cc(-n3cc(C(F)(F)F)cn3)cc2F)N1c1ccc2[nH]cnc2c1 (single isomer, unassigned) [Compound 58B] ?
> 8.70

What about O=C1[C@H](C2CC2)[C@H](c2c(F)cc(C3CC3)cc2F)N1c1ccc2[nH]cnc2c1 (single isomer, unassigned) [Compound 69B] ?
> 8.70

What about Cc1nc(-c2cnn(C(F)(F)F)c2)ccc1[C@@H]1[C@H](C2CC2)C(=O)N1c1ccc2[nH]cnc2c1 (single isomer, unassigned) [Compound 68A] ?
6.00 to 7.60

What about O=C1[C@H](C2CC2)[C@H](c2c(F)cc(-c3cnccn3)cc2F)N1c1ccc2[nH]cnc2c1 (single isomer, unassigned) [Compound 53B] ?
> 8.70

What about C=C1C(=O)N(c2ccc3[nH]cnc3c2)[C@H]1c1c(F)cc(OCCC(F)F)cc1F (single isomer, unassigned) [Compound 22B] ?
> 8.70

What about C[C@@H]1C(=O)N(c2ccc3[nH]cnc3c2)[C@H]1c1c(F)cc(-n2cc(C(F)(F)F)cn2)cc1F (racemic) [Compound 28TR] ?
7.60 to 8.70

What about C[C@H]1C(=O)N(c2ccc3[nH]cnc3c2)[C@H]1c1c(F)cc(-n2cc(C(F)(F)F)cn2)cc1F (racemic) [Compound 28CR] ?
7.60 to 8.70

What about O=C1[C@@H](C2CC2)[C@@H](c2ccc(-c3cnn(C(F)(F)F)c3)cc2Cl)N1c1ccc2[nH]cnc2c1 (single isomer, unassigned) [Compound 75A] ?
6.00 to 7.60

What about Cc1cc([C@@H]2[C@H](C3CC3)C(=O)N2c2ccc3[nH]cnc3c2)ccc1-c1cnn(C(F)(F)F)c1 (single isomer, unassigned) [Compound 57A] ?
6.00 to 7.60

What about O=C1[C@@H](C2CC2)[C@@H](c2ccc(OCCC(F)F)nc2)N1c1ccc2[nH]cnc2c1 (single isomer, unassigned) [Compound 45A] ?
6.00 to 7.60

What about Cc1cc(-c2cc(F)c([C@H]3[C@@H](C4CC4)C(=O)N3c3ccc4[nH]cnc4c3)c(F)c2)on1 (single isomer, unassigned) [Compound 62B] ?
> 8.70

What about Cc1cc(-n2cnc(C(F)(F)F)c2)ncc1[C@@H]1[C@H](C2CC2)C(=O)N1c1ccc2[nH]cnc2c1 (single isomer, unassigned) [Compound 73A] ?
6.00 to 7.60

What about C[C@H]1C(=O)N(c2ccc3[nH]cnc3c2)[C@H]1c1c(F)cc(OCCC2CC2)cc1F (racemic) [Compound 34CR] ?
> 8.70

What about O=C1[C@@H](O)[C@H](c2c(F)cc(-c3cnn(C(F)(F)F)c3)cc2F)N1c1ccc2[nH]cnc2c1 (racemic) [Compound 16TR] ?
6.00 to 7.60

What about O=C1[C@H](C2COC2)[C@H](c2c(F)cc(-c3cnn(C(F)(F)F)c3)cc2F)N1c1ccc2[nH]cnc2c1 (single isomer, unassigned) [Compound 42B] ?
> 8.70

What about O=C1N(c2ccc3[nH]cnc3c2)C(c2c(F)cc(OCCC(F)F)cc2F)C12CCC2 (racemic) ?
6.00 to 7.60

What about Cc1cc(-c2cnn(C(F)(F)F)c2)ncc1[C@@H]1[C@H](C2CC2)C(=O)N1c1ccc2[nH]cnc2c1 (single isomer, unassigned) [Compound 66A] ?
6.00 to 7.60

What about Cc1cc(-c2cnn(C(F)(F)F)c2)ccc1[C@H]1[C@@H](C2CC2)C(=O)N1c1ccc2[nH]cnc2c1 (single isomer, unassigned) [Compound 56B] ?
> 8.70

What about Cc1ncc(-c2cc(F)c([C@H]3[C@@H](C)C(=O)N3c3ccc4[nH]cnc4c3)c(F)c2)s1 (racemic) [Compound 11CR] ?
7.60 to 8.70

What about Cn1cc(-c2cc(F)c([C@H]3[C@@H](O)C(=O)N3c3ccc4[nH]cnc4c3)c(F)c2)cn1 (single isomer, unassigned) [Compound 15B] ?
> 8.70
